These data points were gathered from patent US6017911A.

Tested on: Staphylococcus aureus 50774
RUN DESCRIPTION: Effect on systemic infection in mice
Assay type: in vivo, mice (male Std-ddy strain)
EXPERIMENTAL CONDITIONS: 168 h; Staphylococcus aureus 50774 i.p. infection; oral, twice (immediately and 6 h after infection); survival 7 days after infection
In this section, each of the compounds is paired with its reported ED50.
OBSERVATION TYPE: ED50

>>> test_result("COc1c(N2C[C@H](N)[C@H]3OCC[C@H]32)c(F)cc2c(=O)c(C(=O)O)cn(C3CC3)c12 (relative stereo)")
"0.36 mg/kg"
>>> test_result("COc1c(N2C[C@@H](N)[C@H]3OCC[C@H]32)c(F)c(N)c2c(=O)c(C(=O)O)cn(C3CC3)c12 (relative stereo)")
"0.778 mg/kg"
>>> test_result("CN[C@H]1CN(c2c(F)c(C)c3c(=O)c(C(=O)O)cn(C4CC4)c3c2OC)[C@@H]2CCO[C@H]12 (relative stereo)")
"0.345 mg/kg"

----------
System: Staphylococcus aureus 50774
RUN DESCRIPTION: Effect on systemic infection in mice
Format: in vivo, mice (male Std-ddy strain)
EXPERIMENTAL CONDITIONS: 168 h; Staphylococcus aureus 50774 i.p. infection; oral, twice (immediately and 6 h after infection); survival 7 days after infection
For each record, check the reported ED50: if it is below 0.4 mg/kg write true, else write false.

>>> class_label("COc1c(N2C[C@H](N)[C@H]3OCC[C@H]32)c(F)c(C)c2c(=O)c(C(=O)O)cn(C3CC3)c12 (relative stereo)")
"true"
>>> class_label("COc1c(N2C[C@H](N)[C@H]3OCC[C@H]32)c(F)c(N)c2c(=O)c(C(=O)O)cn(C3CC3)c12 (relative stereo)")
"true"
>>> class_label("COc1c(N2C[C@H](N)[C@H]3OCCC[C@H]32)c(F)cc2c(=O)c(C(=O)O)cn(C3CC3)c12 (relative stereo)")
"false"
>>> class_label("N[C@H]1CN(c2c(F)cc3c(=O)c(C(=O)O)cn(C4CC4)c3c2F)[C@@H]2CCO[C@@H]21 (relative stereo)")
"false"
>>> class_label("CN[C@H]1CN(c2c(F)cc3c(=O)c(C(=O)O)cn(C4CC4)c3c2OC)[C@@H]2CCO[C@H]12 (relative stereo)")
"true"
>>> class_label("CN[C@H]1CN(c2c(F)c(N)c3c(=O)c(C(=O)O)cn(C4CC4)c3c2OC)[C@@H]2CCO[C@H]12 (relative stereo)")
"false"
>>> class_label("COc1c(N2C[C@H](N)[C@H]3OCCC[C@H]32)c(F)c(N)c2c(=O)c(C(=O)O)cn(C3CC3)c12 (relative stereo)")
"false"
>>> class_label("CN[C@H]1CN(c2nc3c(cc2F)c(=O)c(C(=O)O)cn3-c2ccc(F)cc2F)[C@@H]2CCO[C@H]12 (relative stereo)")
"false"
>>> class_label("COc1c(N2C[C@H](N)[C@H]3OCC[C@H]32)c(F)cc2c(=O)c(C(=O)O)cn([C@@H]3C[C@@H]3F)c12 (relative stereo)")
"true"
